System: TCF/LEF luciferase Reporter in DLD1 cells
assay procedure: TCF reporter assay (DLD1 TCF/LEF luciferase reporter, Bright-Glo)
Assay type: cell-based
applied conditions: absolute IC50; read-out: DLD1 reporter assay Abs IC50
Item-by-item account of pIC50
Please report pIC50 as the negative decimal logarithm of the molar concentration, giving only the number.

molecule: CC(=O)N1CCC[C@]12CC=CCCCC1(CCCC=CCCCOC(=O)N3CC[C@@](C(=O)N[C@@H](Cc4ccsc4)C(=O)N[C@@H](Cc4csc5ccccc45)C(=O)N[C@@H](CCC(N)=O)C(N)=O)(C3)NC(=O)[C@H](Cc3ccccc3)NC(=O)[C@H](Cc3ccccc3)NC(=O)[C@H](C)NC(=O)[C@H](C)NC(=O)[C@H](CC(=O)O)NC(=O)[C@H](CC(=O)O)NC1=O)NC(=O)[C@H](CC(C)(C)C)NC(=O)[C@H](CC(=O)O)NC2=O (some centres unmarked) [I-807]
pIC50: 5.47

Let's switch to this molecule now.
[ask] Given CCNC(=O)[C@H](CCC(N)=O)NC(=O)[C@H](Cc1csc2ccccc12)NC(=O)[C@H](Cc1ccccc1Cl)NC(=O)[C@]12CCN(C1)C(=O)OCCCC=CCCCC1(CCCC=CC[C@]3(CCCN3C(C)=O)C(=O)N[C@@H](CC(=O)O)C(=O)N[C@@H](CC(C)(C)C)C(=O)N1)C(=O)N[C@@H](CC(=O)O)C(=O)N[C@@H](CN(CC(=O)O)CC(F)(F)F)C(=O)N[C@@H](C)C(=O)N[C@@H](C)C(=O)N[C@@H](Cc1ccccc1)C(=O)N[C@@H]([C@@H](C)O)C(=O)N2 (some centres unmarked) [I-1240] , state its recorded pIC50.
[reply] 5.31

====

system: full-length beta-Catenin (Uniprot ID P35222) (Homo sapiens, UniProt P35222)
Construct: 10 nM full-length beta-Catenin (Uniprot ID P35222)
Sequence (P35222 1-781): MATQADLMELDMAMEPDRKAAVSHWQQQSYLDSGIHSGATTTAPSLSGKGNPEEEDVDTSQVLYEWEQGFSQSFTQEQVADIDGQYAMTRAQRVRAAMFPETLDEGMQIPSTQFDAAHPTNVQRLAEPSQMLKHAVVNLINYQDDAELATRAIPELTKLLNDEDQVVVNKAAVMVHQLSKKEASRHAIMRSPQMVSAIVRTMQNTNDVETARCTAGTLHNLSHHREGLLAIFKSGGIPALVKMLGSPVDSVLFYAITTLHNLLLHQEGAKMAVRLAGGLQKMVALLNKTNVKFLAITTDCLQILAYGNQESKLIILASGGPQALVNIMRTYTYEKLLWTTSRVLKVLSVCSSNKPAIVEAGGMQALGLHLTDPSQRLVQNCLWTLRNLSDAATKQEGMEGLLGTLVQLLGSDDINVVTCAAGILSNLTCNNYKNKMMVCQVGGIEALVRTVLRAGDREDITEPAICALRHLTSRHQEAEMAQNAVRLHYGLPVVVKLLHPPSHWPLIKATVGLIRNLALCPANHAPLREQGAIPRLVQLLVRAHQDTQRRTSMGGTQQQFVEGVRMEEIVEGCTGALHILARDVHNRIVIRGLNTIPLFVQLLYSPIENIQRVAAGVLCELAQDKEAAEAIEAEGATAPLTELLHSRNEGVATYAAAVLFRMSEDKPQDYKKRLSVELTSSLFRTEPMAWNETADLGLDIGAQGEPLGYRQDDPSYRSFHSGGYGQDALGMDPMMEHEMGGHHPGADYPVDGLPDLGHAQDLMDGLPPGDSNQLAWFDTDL
assay procedure: Fluorescence polarization IC50 (beta-catenin / 5FAM-TCF4 10-53 competition)
Format: binding
applied conditions: read-out: beta-Catenin FP IC50
attribute measured: IC50

compound: CCN(CC(=O)O)C[C@@H]1NC(=O)[C@H](CC(=O)O)NC(=O)C2(CCCC=CCCCOC(=O)N3CC[C@@](C(=O)N[C@@H](Cc4ccsc4)C(=O)N[C@@H](Cc4csc5ccccc45)C(=O)N[C@@H](CCC(N)=O)C(N)=O)(C3)NC(=O)[C@H](Cc3ccccc3)NC(=O)[C@H](Cc3ccccc3)NC(=O)[C@H](C)NC(=O)[C@H](C)NC1=O)CCCC=CC[C@]1(CCCN1C(C)=O)C(=O)N[C@@H](CC(=O)O)C(=O)N[C@@H](CC(C)(C)C)C(=O)N2 (stereo partly drawn) [I-970]
IC50: 1360 nM

compound: CC(=O)N1CCC[C@]12CC=CCCCC1(CCCC=CCCCCCC[C@@](C)(C(=O)N[C@@H](Cc3ccccc3Cl)C(=O)N[C@@H](Cc3csc4ccccc34)C(=O)N[C@@H](CCC(N)=O)C(N)=O)NC(=O)[C@H](CCO)NC(=O)[C@H](Cc3ccccc3)NC(=O)[C@H](C)NC(=O)[C@H](C)NC(=O)[C@H](CN(CC(=O)O)CC(F)(F)F)NC(=O)[C@H](CC(=O)O)NC1=O)NC(=O)[C@H](CC(C)(C)C)NC(=O)[C@H](CC(=O)O)NC2=O (stereo partly drawn) [I-996]
IC50: 21 nM

compound: CC(=O)N1CCC[C@]12CC=CCCCC1(CCCC=CCCCOC(=O)N3CC[C@@](C(=O)N[C@@H](Cc4ccsc4)C(=O)N[C@@H](Cc4csc5ccccc45)C(=O)N[C@@H](CCC(N)=O)C(N)=O)(C3)NC(=O)[C@H](CC(N)=O)NC(=O)[C@H](Cc3ccccc3)NC(=O)[C@H](CCCCNC(=O)CN3CCOCC3)NC(=O)[C@H](C)NC(=O)[C@H](CC(=O)O)NC(=O)[C@H](CC(=O)O)NC1=O)NC(=O)[C@H](CC(C)(C)C)NC(=O)[C@H](CC(=O)O)NC2=O (stereo partly drawn) [I-886]
IC50: 22 nM

[ask] Given CC(=O)N1CCC[C@]12CC=CCCCC1(CCCC=CCCCOC(=O)N3CC[C@@](C(=O)N[C@@H](Cc4ccsc4)C(=O)N[C@@H](Cc4csc5ccccc45)C(=O)N[C@@H](CCC(N)=O)C(=O)N[C@@H](CCCCNC(=O)C45CC6(C)CC(C)(CC(C)(C6)C4)C5)C(N)=O)(C3)NC(=O)[C@H](CC(N)=O)NC(=O)[C@H](Cc3ccccc3)NC(=O)[C@H](C)NC(=O)[C@H](C)NC(=O)[C@H](CC(=O)O)NC(=O)[C@H](CC(=O)O)NC1=O)NC(=O)[C@H](CC(C)(C)C)NC(=O)[C@H](CC(=O)O)NC2=O (stereo partly drawn) [I-920] , state its recorded IC50.
[reply] 117 nM

[ask] Next: CC(=O)N1CCC[C@]12CC=CCCCC1(CCCC=CCCCOC(=O)N3CC[C@@](C(=O)N[C@@H](Cc4ccccc4Cl)C(=O)N[C@@H](Cc4csc5ccccc45)C(=O)N[C@H](C(N)=O)[C@@H](C)O)(C3)NC(=O)[C@H](Cc3ccccc3)NC(=O)[C@H](Cc3ccccc3)NC(=O)[C@H](C)NC(=O)[C@H](C)NC(=O)[C@H](CN(CC(=O)O)CC(F)(F)F)NC(=O)[C@H](CC(=O)O)NC1=O)NC(=O)[C@H](CC(C)(C)C)NC(=O)[C@H](CC(=O)O)NC2=O (stereo partly drawn) [I-991]
[reply] 51 nM

[ask] Next: CCCCCCCC(=O)NCCCC[C@@H]1NC(=O)[C@H](C)NC(=O)[C@H](CC(=O)O)NC(=O)[C@H](CC(=O)O)NC(=O)C2(CCCC=CCCCOC(=O)N3CC[C@@](C(=O)N[C@@H](Cc4ccsc4)C(=O)N[C@@H](Cc4csc5ccccc45)C(=O)N[C@@H](CCC(N)=O)C(N)=O)(C3)NC(=O)[C@H](CC(N)=O)NC(=O)[C@H](Cc3ccccc3)NC1=O)CCCC=CC[C@]1(CCCN1C(C)=O)C(=O)N[C@@H](CC(=O)O)C(=O)N[C@@H](CC(C)(C)C)C(=O)N2 (stereo partly drawn) [I-898]
[reply] 16 nM

[ask] Next: CC(=O)N1CCC[C@]12CC=CCCCC1(CCCC=CCCCCCC[C@@](C)(C(=O)N[C@@H](Cc3ccccc3)C(=O)N[C@@H](Cc3csc4ccccc34)C(=O)N(C)[C@@H](CO)C(N)=O)NC(=O)[C@H](CC(N)=O)NC(=O)[C@H](Cc3ccccc3)NC(=O)[C@H](C)NC(=O)[C@H](C)NC(=O)[C@H](CCC(=O)O)NC(=O)[C@H](CC(=O)O)NC1=O)NC(=O)[C@H](CC(C)C)NC(=O)[C@H](CC(=O)O)NC2=O (stereo partly drawn) [I-759]
[reply] 1530 nM

[ask] Next: C#CCOCCOCCOCCC(=O)NCCCC[C@H](NC(=O)[C@H](CCC(N)=O)NC(=O)[C@H](Cc1csc2ccccc12)NC(=O)[C@H](Cc1ccsc1)NC(=O)[C@]12CCN(C1)C(=O)OCCCC=CCCCC1(CCCC=CC[C@]3(CCCN3C(C)=O)C(=O)N[C@@H](CC(=O)O)C(=O)N[C@@H](CC(C)(C)C)C(=O)N1)C(=O)N[C@@H](CC(=O)O)C(=O)N[C@@H](CC(=O)O)C(=O)N[C@@H](C)C(=O)N[C@@H](C)C(=O)N[C@@H](Cc1ccccc1)C(=O)N[C@@H](CC(N)=O)C(=O)N2)C(N)=O (stereo partly drawn) [I-937]
[reply] 9 nM

[ask] Next: CC(=O)N1CCC[C@]12CC=CCCCC1(CCCC=CCCCOC(=O)N3CC[C@@](C(=O)N[C@@H](Cc4ccsc4)C(=O)N[C@@H](Cc4csc5ccccc45)C(=O)N[C@@H](CCC(N)=O)C(=O)N[C@@H](C)C(N)=O)(C3)NC(=O)[C@H](CC(N)=O)NC(=O)[C@H](Cc3ccccc3)NC(=O)[C@H](C)NC(=O)[C@H](C)NC(=O)[C@H](CC(=O)O)NC(=O)[C@H](CC(=O)O)NC1=O)NC(=O)[C@H](CC(C)(C)C)NC(=O)[C@H](CC(=O)O)NC2=O (stereo partly drawn) [I-819]
[reply] 5 nM
